Where do the numbers come from? From patent US9522888B2.

Study System: hS1P1/CHO cells (Homo sapiens (Human))
Sequence (P21453 whole entry): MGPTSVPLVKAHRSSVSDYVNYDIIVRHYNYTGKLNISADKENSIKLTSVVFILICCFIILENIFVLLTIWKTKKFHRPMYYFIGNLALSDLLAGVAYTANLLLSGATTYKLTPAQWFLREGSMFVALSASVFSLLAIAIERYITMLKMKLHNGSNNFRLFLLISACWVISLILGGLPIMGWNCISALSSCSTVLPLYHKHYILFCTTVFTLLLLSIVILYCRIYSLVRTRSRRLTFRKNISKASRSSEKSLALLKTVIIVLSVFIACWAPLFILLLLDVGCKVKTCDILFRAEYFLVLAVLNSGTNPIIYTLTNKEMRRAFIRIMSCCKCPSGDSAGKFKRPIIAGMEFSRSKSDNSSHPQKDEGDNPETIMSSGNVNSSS
Run Description: hS1P1 ERK phosphorylation (S1P1 pERK)
Reported Conditions: phosphate examples
pEC50: −log10 of the molar value.
Value Kind: pEC50

Use these answered entries as a reference point.
Molecule: N[C@]1(COP(=O)(O)O)CC[C@H](c2ccc3c(c2)CC[C@@H](CSCCc2ccccc2)C3)C1
pEC50: 7.00 to 8.00
--
Molecule: CCOc1cccc(C[C@@H]2CCc3cc([C@H]4CC[C@](N)(COP(=O)(O)O)C4)ccc3C2)c1
pEC50: 7.00 to 8.00
--
Molecule: CCCCOC[C@@H]1CCc2cc([C@H]3CC[C@](N)(COP(=O)(O)O)C3)ccc2C1
pEC50: > 8.00
--
Molecule: COCCCCCC[C@H]1CCc2cc(C3CCC(N)(COP(=O)(O)O)C3)ccc2C1 (single isomer, unassigned)
pEC50: 7.00 to 8.00

So what's the measured pEC50 for this one? N[C@@]1(COP(=O)(O)O)CC[C@@H](c2ccc3c(c2)CC[C@@H](OCCOc2ccccc2)C3)C1
> 8.00

One more molecule: CCCCCO[C@H]1CCc2cc([C@H]3CC[C@](N)(COP(=O)(O)O)C3)ccc2C1
> 8.00

One more molecule: C=CCOCCO[C@@H]1CCc2cc(C3CCC(N)(COP(=O)(O)O)C3)ccc2C1 (single isomer, unassigned)
7.00 to 8.00

----------
Study System: S1P1 (membranes prepared from S1P1/CHO cells) (Homo sapiens (Human), UniProt P21453)
Sequence (P21453 whole entry): as above
Run Description: Receptor [35S] GTPγS binding assay (S1P1 GTPγS)
Assay type: biochemical
Reported Conditions: phosphate examples; read-out: S1P1 GTPγS
Value Kind: EC50

So what's the measured EC50 for this one? CCCCCOC[C@@H]1COc2cc([C@H]3CC[C@](N)(COP(=O)(O)O)C3)ccc2O1
< 10 nM

----------
Study System: human S1P1 (Homo sapiens (Human))
Run Description: S1P1 binding assay (33P-S1P radioligand competition, CHO cell membranes)
Reported Conditions: phosphate examples; read-out: S1P1 Binding
pIC50: −log10 of the molar value.
Value Kind: pIC50

Use these answered entries as a reference point.
Compound: Cc1ccc(COC[C@@H]2CCc3cc([C@H]4CC[C@](N)(COP(=O)(O)O)C4)ccc3C2)cc1
Value Reported: > 8.00
//
Compound: N[C@]1(COP(=O)(O)O)CC[C@H](c2ccc3c(c2)CC[C@@H](CSCCc2ccncc2)C3)C1
Value Reported: > 8.00
//
Compound: COc1cccc(C[C@H]2CCc3cc([C@H]4CC[C@](N)(COP(=O)(O)O)C4)ccc3C2)c1
Value Reported: > 8.00
//
Compound: CCCSC[C@H]1CCc2cc([C@H]3CC[C@](N)(COP(=O)(O)O)C3)ccc2C1 [compound 502]
Value Reported: > 8.00
//
Compound: N[C@]1(COP(=O)(O)O)CC[C@@H](c2ccc3c(c2)CC[C@@H](CSc2ccccc2)C3)C1
Value Reported: 7.00 to 8.00
//
Compound: CC(C)=CCCC[C@@H]1CCc2cc([C@H]3CC[C@](N)(COP(=O)(O)O)C3)ccc2C1
Value Reported: 5.00 to 6.00

So what's the measured pIC50 for this one? COc1ccc(C[C@@H]2CCc3cc([C@H]4CC[C@](N)(COP(=O)(O)O)C4)ccc3C2)c(C)c1
6.00 to 7.00

One more compound: CCOCC[C@@H]1CCc2cc([C@H]3CC[C@](N)(COP(=O)(O)O)C3)ccc2C1
> 8.00

One more compound: C=CCOCCO[C@@H]1CCc2cc(C3CCC(N)(COP(=O)(O)O)C3)ccc2C1 (single isomer, unassigned)
6.00 to 7.00

One more compound: COCCCOC[C@@H]1CCc2cc([C@H]3CC[C@](N)(COP(=O)(O)O)C3)ccc2C1
> 8.00

One more compound: CCc1ccc(COC[C@@H]2CCc3cc([C@H]4CC[C@](N)(COP(=O)(O)O)C4)ccc3C2)s1
> 8.00

One more compound: COc1cncc(OC[C@@H]2CCc3cc([C@H]4CC[C@](N)(COP(=O)(O)O)C4)ccc3C2)c1
> 8.00

----------
Study System: hS1P1/CHO cells (Homo sapiens (Human))
Run Description: hS1P1 ERK phosphorylation (S1P1 pERK)
Reported Conditions: phosphate examples
pEC50: −log10 of the molar value.
Listed next: entries and their corresponding pEC50.

Use these answered entries as a reference point.
Compound: N[C@]1(COP(=O)(O)O)CC[C@H](c2ccc3c(c2)CC[C@H](COCc2ccccc2)C3)C1 [compound 445]
Study System: hS1P1/CHO cells (Homo sapiens (Human))
Value Reported: 7.00 to 8.00
--
Compound: CC(C)CC/C=C/[C@@H]1CCc2cc([C@H]3CC[C@](N)(COP(=O)(O)O)C3)ccc2C1 [compound 645]
Study System: hS1P1/CHO cells (Homo sapiens (Human))
Value Reported: 7.00 to 8.00
--
Compound: COc1cc(OC[C@@H]2CCc3cc([C@H]4CC[C@](N)(COP(=O)(O)O)C4)ccc3C2)ccc1C(C)(C)C [compound 498]
Study System: hS1P1/CHO cells (Homo sapiens (Human))
Value Reported: 7.00 to 8.00
--
Compound: COc1cccc(C[C@H]2CCc3cc([C@H]4CC[C@](N)(COP(=O)(O)O)C4)ccc3C2)c1 [compound 567]
Study System: hS1P1/CHO cells (Homo sapiens (Human))
Value Reported: 7.00 to 8.00
--
Compound: CCCCC(C)(C)C(=O)OC1CCc2cc([C@H]3CC[C@@](N)(COP(=O)(O)O)C3)ccc2C1 (stereo partly drawn) [compound 624]
Study System: hS1P1/CHO cells (Homo sapiens (Human))
Value Reported: 6.00 to 7.00
--
Compound: N[C@@]1(COP(=O)(O)O)CCC(c2ccc3c(c2)CN(CCCc2ccccc2)C3=O)C1 (stereo partly drawn) [compound 613]
Study System: hS1P1/CHO cells (Homo sapiens (Human))
Value Reported: 6.00 to 7.00
--
Compound: CCOc1ccc(C[C@H]2CCc3cc([C@H]4CC[C@](N)(COP(=O)(O)O)C4)ccc3C2)cc1 [compound 547]
Study System: hS1P1/CHO cells (Homo sapiens (Human))
Value Reported: 7.00 to 8.00
--
Compound: CCCCOC[C@H]1CCc2cc([C@H]3CC[C@](N)(COP(=O)(O)O)C3)ccc2C1 [compound 446]
Study System: hS1P1/CHO cells (Homo sapiens (Human))
Value Reported: > 8.00
--
Compound: COc1ccc(CC[C@H]2CCc3cc([C@@H]4CC[C@@](N)(COP(=O)(O)O)C4)ccc3C2)cc1 [compound 594]
Study System: hS1P1/CHO cells (Homo sapiens (Human))
Value Reported: 6.00 to 7.00
--
Compound: CC(C)(C)CCSC[C@H]1CCc2cc([C@H]3CC[C@](N)(COP(=O)(O)O)C3)ccc2C1 [compound 518]
Study System: hS1P1/CHO cells (Homo sapiens (Human))
Value Reported: > 8.00

So what's the measured pEC50 for this one? COc1cccc(OCC[C@@H]2CCc3cc([C@H]4CC[C@](N)(COP(=O)(O)O)C4)ccc3C2)c1 [compound 544]
> 8.00

One more compound: COc1cccc(OCC[C@H]2CCc3cc([C@H]4CC[C@](N)(COP(=O)(O)O)C4)ccc3C2)c1 [compound 545]
> 8.00

----------
Study System: human S1P1 (Homo sapiens (Human), UniProt P21453)
Sequence (P21453 whole entry): as above
Run Description: S1P1 binding assay (33P-S1P radioligand competition, CHO cell membranes)
Reported Conditions: phosphate examples; read-out: S1P1 Binding
Value Kind: IC50

Compound: COc1cccc(CCC[C@@H]2CCc3cc([C@H]4CC[C@](N)(COP(=O)(O)O)C4)ccc3C2)c1 [compound 564]
IC50: 10 to 100 nM

Compound: N[C@]1(COP(=O)(O)O)CC[C@H](c2ccc3c(c2)CC[C@H](CSCCc2cnccn2)C3)C1 [compound 526]
IC50: 10 to 100 nM

Next compound, please.
Form entry - test system: human S1P1 (Homo sapiens (Human), UniProt P21453); read-out: IC50; compound: COc1ccccc1CCC[C@@H]1CCc2cc([C@H]3CC[C@](N)(COP(=O)(O)O)C3)ccc2C1 [compound 563]
100 to 1000 nM

----------
Study System: S1P1 (membranes prepared from S1P1/CHO cells) (Homo sapiens (Human), UniProt P21453)
Run Description: Receptor [35S] GTPγS binding assay (S1P1 GTPγS)
Assay type: biochemical
Reported Conditions: phosphate examples; read-out: S1P1 GTPγS
Value Kind: EC50

So what's the measured EC50 for this one? Cc1cccc(C)c1SC[C@@H]1CCc2cc([C@H]3CC[C@](N)(COP(=O)(O)O)C3)ccc2C1
0.1 to 1 µM

One more molecule: CCCCCC1CCc2cc([C@H]3CC[C@](N)(COP(=O)(O)O)C3)ccc2C1 (stereo partly shown) [compound 575]
0.01 to 0.1 µM

One more molecule: CC(C)c1ccccc1SC[C@@H]1CCc2cc([C@H]3CC[C@](N)(COP(=O)(O)O)C3)ccc2C1
< 0.01 µM

One more molecule: CCOCC[C@@H]1CCc2cc([C@H]3CC[C@](N)(COP(=O)(O)O)C3)ccc2C1
0.01 to 0.1 µM
